- Species on record: Homo sapiens
- MEASUREMENT DESCRIPTION: To identify inhibition of the IFN signalling (Jak-Stat) pathway via expression of an eGFP reporter gene under the control of an IFN-stimulated response element (ISRE) containing MxA promoter.
- Assay type: functional
- Design: scale not given: direction of the effect not stated beside the values
- TEST CONTEXT: 30 µM
# label = 1.0 if Percent Effect < 20% else 0.0

Below, 4 compounds whose answers are already recorded.
INSERT INTO assay_data (compound, category) VALUES
  ('CC(C)c1nc(C2CCCN2CCCc2nc3ccccc3o2)no1 (stereo not given)', 1.0),
  ('CCc1nccn1C1CCCN(C(=O)c2ccc3[nH]cnc3c2)C1 (stereo not given)', 1.0),
  ('CNC(=O)C1CCN(C(=O)c2ccn(-c3ccc(F)cc3)n2)CC1', 1.0),
  ('CC(C)N1CCC(N2CCN(C3CCC3)CC2CCO)CC1 (stereo not given)', 1.0);

Problem: Quick check: does Cc1c[nH]nc1C1CCN(S(=O)(=O)N(C)C)CC1 have Percent Effect under 20%?
Result: 1.0

Problem: Quick check: does CS(=O)(=O)N1CCC2(CN(C(=O)c3cccnc3)C2)C1 have Percent Effect under 20%?
Result: 0.0

====

- SUBJECT OF TEST: Tyrosyl-tRNA synthetase, putative (Trypanosoma cruzi (strain CL Brener)) (UniProt Q4DSP6)
- Sequence (Q4DSP6 as listed by the source): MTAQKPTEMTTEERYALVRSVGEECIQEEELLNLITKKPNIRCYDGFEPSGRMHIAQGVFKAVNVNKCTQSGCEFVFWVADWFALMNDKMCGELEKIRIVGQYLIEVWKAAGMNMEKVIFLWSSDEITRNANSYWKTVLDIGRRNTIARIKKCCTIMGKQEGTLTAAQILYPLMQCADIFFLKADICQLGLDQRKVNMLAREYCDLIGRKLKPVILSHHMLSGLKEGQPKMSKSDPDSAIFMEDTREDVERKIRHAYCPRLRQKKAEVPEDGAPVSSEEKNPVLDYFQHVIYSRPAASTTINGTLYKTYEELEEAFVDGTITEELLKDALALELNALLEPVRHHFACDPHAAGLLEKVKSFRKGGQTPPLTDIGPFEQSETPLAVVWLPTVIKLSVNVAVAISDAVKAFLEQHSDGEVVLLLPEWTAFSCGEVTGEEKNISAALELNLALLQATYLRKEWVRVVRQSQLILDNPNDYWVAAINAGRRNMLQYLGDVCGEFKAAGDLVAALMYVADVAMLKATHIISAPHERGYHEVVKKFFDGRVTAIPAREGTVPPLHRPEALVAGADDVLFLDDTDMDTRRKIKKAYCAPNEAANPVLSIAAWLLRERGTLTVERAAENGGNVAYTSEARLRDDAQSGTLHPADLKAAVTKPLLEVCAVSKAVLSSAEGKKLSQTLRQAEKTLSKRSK
- MEASUREMENT DESCRIPTION: Trypanosoma cruzi tyrosyl tRNA synthetase (TcYRS) _High Tyrosine SOP; also: in the data most compounds retested in dose-response had high values
- Format: functional
- Set-up: scale not given: direction of the effect not stated beside the values
- TEST CONTEXT: 30 µM
Reported Percent Effect values for a set of compounds

The following compounds have reported results that may help.
INSERT INTO measurements (compound, result) VALUES
  ('Cc1cc(N2CCC(N(C)C(=O)Nc3ccccc3)CC2)nc(C)n1', '4.3%'),
  ('CN(CCc1ccccc1)c1cnn(CC(=O)N2CCSCC2)c(=O)c1', '1.07%'),
  ('CN(C)C(CNS(=O)(=O)c1ccc(F)cc1F)c1cccn1C (stereo not given)', '4.3%');

Percent Effect recorded for this compound, Cc1ncc(CNC(=O)CCOc2ccccc2)c(C2CCCN2C)n1 (stereo not given) , is 1.07%

====

Reported Percent Effect values for a set of compounds
- SUBJECT OF TEST: Tyrosyl-tRNA synthetase, putative (Trypanosoma cruzi (strain CL Brener))
- MEASUREMENT DESCRIPTION: Trypanosoma cruzi tyrosyl tRNA synthetase (TcYRS) SOP
- Format: functional
- Design: scale not given: direction of the effect not stated beside the values
- TEST CONTEXT: 30 µM
Provide the reading as a plain figure in %.

INSERT INTO assay_data (compound, numeric_readout) VALUES
  ('Cc1nc(CN(Cc2ccccc2)C2CCS(=O)(=O)C2)oc1C (stereo unspecified)', 23.5),
  ('OC1(Cn2ccc3ncccc32)CCN(Cc2ccccn2)CC1', -9.09),
  ('CCc1nccn1C1CCCN(C(=O)c2ccc3[nH]cnc3c2)C1 (stereo unspecified)', 10.4),
  ('Cc1ccc(C(=O)NCCCNS(C)(=O)=O)c(=O)[nH]1', 18.3),
  ('Cc1cc(CN2CCN(CC(O)c3ccccc3)CC2)no1 (stereo unspecified)', 13.9),
  ('CC(C)(C)c1nnc(CN2CCCC2c2noc(C3CC3)n2)o1 (stereo unspecified)', 28.1),
  ('CN(C)S(=O)(=O)c1ccc(OCCNCCn2cccn2)cc1', -12.7),
  ('CC(C)(C)c1nc(CN2CCCC2Cn2cccn2)no1 (stereo unspecified)', 26.8),
  ('COc1ncccc1CN1Cc2nnn(C)c2C(COCC2CC2)C1 (stereo unspecified)', 14.1),
  ('O=C(C1=CC2(CCNCC2)c2ccccc21)N1CCCC1', 2.5);

Percent Effect recorded for this compound, CCc1noc(C(C)N2CCN(Cc3noc(C)n3)CC2)n1 (stereo unspecified) , is 17.1

Percent Effect recorded for this compound, CN1CCC(c2cccc(Cc3ccc(F)cc3)n2)CC1 , is -1.3

Percent Effect recorded for this compound, CC(Cn1cccn1)NC(=O)NCCc1ccc(Cl)s1 (stereo unspecified) , is 16.5

Percent Effect recorded for this compound, CCCc1cc(C(=O)N(C)Cc2cccc3ncccc23)n(C)n1 , is 18.5

Percent Effect recorded for this compound, O=C(c1ccncc1)N1CCC(O)(Cn2ccc3ccncc32)CC1 , is 9.09

Percent Effect recorded for this compound, O=C(CN1CCCCC1Cn1cncn1)NCCc1ccc(F)cc1 (stereo unspecified) , is 11.4

Percent Effect recorded for this compound, CSCC(CCO)NC(=O)Nc1cc(Br)ccc1C (stereo unspecified) , is 5

Percent Effect recorded for this compound, O=C(c1cccnc1)N1CCC2(CC1)CCN(c1ccsc1)C2=O , is -6.41

Percent Effect recorded for this compound, N#Cc1ccc(OCCCN2CCc3cncnc3C2)cc1 , is 11.4

Percent Effect recorded for this compound, CC(=O)Nc1nc(CN2CCn3c(nnc3C3CC3)C2)cs1 , is 11

Percent Effect recorded for this compound, NC(=O)C1CCCN(C(=O)c2cnc3c(cnn3C3CCCC3)c2)C1 (stereo unspecified) , is 24.1

Percent Effect recorded for this compound, CCn1nc(C)cc1C(=O)Nc1cc(F)ccc1OCC1CCCO1 (stereo unspecified) , is 9.41

Percent Effect recorded for this compound, COCCOCC(=O)Nc1ccc(Br)cc1F , is 7.79

Percent Effect recorded for this compound, CCN1CCN(C2CCN(Cc3nc4ccccc4o3)CC2)C1=O , is 21.2

Percent Effect recorded for this compound, CCc1nc(C2CCCN2CC(=O)Nc2sc(C)c(C)c2C)no1 (stereo unspecified) , is 14.6

Percent Effect recorded for this compound, CC1COCCN1Cc1nc(-c2cccs2)no1 (stereo unspecified) , is 13.6
